- System: HBsAg
- Assay Notes: PHH HBV natural infection assay, HBsAg (alphalisa)
- Format: cell-based
- Conditions Used: Hepatitis B virus, Hepatocyte, 72 h, read-out: HBsAg IC50
Measurement Name: pIC50
Lab note: report pIC50 as minus log10 of the concentration in molar units, number only.

Some solved cases for reference:
- O=C(NC12CC(c3nc4cc(Cl)ccc4o3)(C1)C2)c1ccc([S+]([O-])CC2CC2)o1 (centres unmarked) [Example 6]: 5.69
- N=S(=O)(CC1COC1)c1ccc(C(=O)NC23CC(c4nc5cc(Cl)ccc5o4)(C2)C3)o1 (centres unmarked) [Example 15]: 5.32
- CSc1cccc(C(=O)NC23CC(c4nc5cc(Cl)ccc5o4)(C2)C3)c1 [Example 21]: 5.59
- O=C(NC12CC(c3nc4ccc(Cl)cc4o3)(C1)C2)c1ccnc(C(F)(F)F)c1 [Example 37]: 5.38
- C[S@@+]([O-])c1ccc(C(=O)NC23CC(c4nc5cc(Cl)ccc5o4)(C2)C3)o1 [Example 2-b]: 5.44

Q: Name the reported pIC50 value associated with the compound CS(=O)(=O)c1ccc(C(=O)NC23CC(c4nc5cccc(Cl)c5o4)(C2)C3)o1 [Example 44]
Result: 5.05

Q: Name the reported pIC50 value associated with the compound CS(=O)(=O)c1ccc(C(=O)NC23CCC(c4nc5cc(Cl)ccc5o4)(CC2)C3)o1 [Example 46]
Result: 5.15

Q: Name the reported pIC50 value associated with the compound CS(=O)(=O)c1ccc(C(=O)NC23CC(c4nc5ccc(Cl)cc5o4)(C2)C3)o1 [Example 32]
Result: 5.25

====

molecules and their reported CC50 at 144 h
- Assay Notes: Cytotoxicity in PHH natural infection assay (Cell Counting Kit-8)
- Type: cell-based
- Conditions Used: HBV-infected primary human hepatocytes, CCK8
- Experimental: Detailed procedures regarding primary human hepatocyte (PHH) HBV natural infection assay are described as below. […] HBsAg and HBeAg were detected using alphalisa method using their specific antibodies. For HBV DNA detection, HBV DNA Quantitative Fluorescence Diagnostic Kit (Sansure Biotech Inc.) was used following the manufacture's protocol. Cytotoxicity was determined using Cell Counting Kit-8 (CCK8, Dojindo Molecular Technologies, Inc.).

Q: Name the reported CC50 at 144 h value associated with the molecule "O=C(NC12CC(c3nc4cc(Cl)ccc4o3)(C1)C2)c1ccc(C(F)(F)F)nc1"
Result: > 100 µM

Q: Name the reported CC50 at 144 h value associated with the molecule "CS(=O)(=O)Cc1ccc(C(=O)NC23CC(c4nc5cnc(Cl)cc5o4)(C2)C3)o1"
Result: > 10 µM

Q: Name the reported CC50 at 144 h value associated with the molecule N=S(=O)(CC1COC1)c1ccc(C(=O)NC23CC(c4nc5cc(Cl)ccc5o4)(C2)C3)o1 (centres unmarked)
Result: > 100 µM

====

molecules and their reported pIC50
- System: HBsAg
- Assay Notes: PHH HBV natural infection assay, HBsAg (alphalisa)
- Type: cell-based
- Conditions Used: Hepatitis B virus, Hepatocyte, 72 h, read-out: HBsAg IC50
Lab note: report pIC50 as minus log10 of the concentration in molar units, number only.

Some solved cases for reference:
• CC1(C(=O)NC23CCC(c4nc5cc(Cl)ccc5o4)(CC2)CC3)CCS(=O)(=O)C1 (stereo not shown) = 5.04
• CS(=N)(=O)Cc1ccc(C(=O)NC23CC(c4nc5cc(Cl)ccc5o4)(C2)C3)o1 (stereo not shown) = 5.49
• CS(=O)(=O)c1ccc(C(=O)NC23CC(c4nc5cc(Cl)ccc5o4)(C2)C3)o1 = 5.66

# ---- query molecule ----
Q: Name the reported pIC50 value associated with the molecule CS(=N)(=O)c1ccc(C(=O)NC23CC(c4nc5cc(Cl)ccc5o4)(C2)C3)o1 (stereo not shown)
Result: 5.82

====

compounds and their reported CC50 at 144 h
- Assay Notes: Cytotoxicity in PHH natural infection assay (Cell Counting Kit-8)
- Type: cell-based
- Conditions Used: HBV-infected primary human hepatocytes, CCK8

Some solved cases for reference:
- CSc1cccc(C(=O)NC23CC(c4nc5cc(Cl)ccc5o4)(C2)C3)c1: > 100 µM
- O=C(NC12CC(c3nc4cc(Cl)ccc4o3)(C1)C2)c1cccc(Br)c1: > 100 µM
- N=S(=O)(CC1CC1)c1ccc(C(=O)NC23CC(c4nc5cc(Cl)ccc5o4)(C2)C3)o1 (centres unmarked): > 100 µM
- NS(=O)(=O)c1ccc(C(=O)NC23CC(c4nc5cc(Cl)ccc5o4)(C2)C3)o1: > 100 µM
- O=C(NC12CC(c3nc4ccc(Cl)cc4o3)(C1)C2)c1ccc(S(=O)(=O)CC2CC2)o1: 95.4 µM
- O=C(NC12CC(c3nc4cc(Cl)ccc4o3)(C1)C2)c1ccc(S(=O)(=O)C2CC2)o1: > 100 µM

Q: Name the reported CC50 at 144 h value associated with the compound "C[S@](=N)(=O)c1ccc(C(=O)NC23CC(c4nc5cc(Cl)ccc5o4)(C2)C3)o1"
Result: > 100 µM

Q: Name the reported CC50 at 144 h value associated with the compound "C[S@+]([O-])c1ccc(C(=O)NC23CC(c4nc5cc(Cl)ccc5o4)(C2)C3)o1"
Result: > 100 µM

Q: Name the reported CC50 at 144 h value associated with the compound CS(=N)(=O)c1cccc(C(=O)NC23CC(c4nc5cc(Cl)ccc5o4)(C2)C3)c1 (centres unmarked)
Result: > 100 µM

Q: Name the reported CC50 at 144 h value associated with the compound "CSc1ccc(C(=O)NC23CC(c4nc5cc(Cl)ccc5o4)(C2)C3)o1"
Result: > 100 µM

Q: Name the reported CC50 at 144 h value associated with the compound CS(=N)(=O)Cc1ccc(C(=O)NC23CC(c4nc5cc(Cl)ccc5o4)(C2)C3)o1 (centres unmarked)
Result: > 100 µM

Q: Name the reported CC50 at 144 h value associated with the compound "O=C(NC12CCC(c3nc4cc(Cl)ccc4o3)(CC1)CC2)C1CC2(C1)CS(=O)(=O)C2"
Result: > 100 µM

Q: Name the reported CC50 at 144 h value associated with the compound "O=C(NC12CC(c3nc4ccc(Cl)cc4o3)(C1)C2)c1ccnc(S(=O)(=O)C2CC2)c1"
Result: > 10 µM

====

- Assay Notes: Cytotoxicity in PHH natural infection assay (Cell Counting Kit-8)
- Assay type: cell-based
- Conditions Used: HBV-infected primary human hepatocytes, CCK8
Measurement Name: CC50 at 144 h

Some solved cases for reference:
- CS(=O)(=O)c1ccc(C(=O)NC23CC(c4nc5ccc(Cl)cc5o4)(C2)C3)o1: > 100 µM
- O=C(NC12CCC(c3nc4cc(Cl)ccc4o3)(CC1)CC2)c1ccc(C(F)(F)F)o1: > 100 µM

Q: Name the reported CC50 at 144 h value associated with the compound "O=C(NC12CC(c3nc4cc(Cl)ccc4o3)(C1)C2)c1ccc(S(=O)(=O)CC2COC2)o1"
Result: 95.7 µM

Q: Name the reported CC50 at 144 h value associated with the compound "CS(=O)(=O)Cc1ccc(C(=O)NC23CC(c4nc5cc(Cl)ccc5o4)(C2)C3)o1"
Result: > 100 µM

====

- Assay Notes: Cytotoxicity in PHH natural infection assay (Cell Counting Kit-8)
- Format: cell-based
- Conditions Used: HBV-infected primary human hepatocytes, CCK8
Measurement Name: CC50 at 144 h

Q: Name the reported CC50 at 144 h value associated with the compound "O=C(NC12CC(c3nc4cc(Cl)cnc4o3)(C1)C2)c1ccnc(C(F)(F)F)c1"
Result: 92 µM

====

- Assay Notes: Cytotoxicity in PHH natural infection assay (Cell Counting Kit-8)
- Assay type: cell-based
- Conditions Used: HBV-infected primary human hepatocytes, CCK8
Measurement Name: CC50 at 144 h (µM)
Return type: number; implicit unit µM.

• O=C(NC12CC(c3nc4cc(Cl)ccc4o3)(C1)C2)c1ccc(S(=O)(=O)CC2CC2)o1 [Example 7] = 73.1

# ---- query compound ----
Q: Name the reported CC50 at 144 h value associated with the compound O=C(NC12CC(c3nc4cc(Cl)ccc4o3)(C1)C2)c1ccnc(C(F)(F)F)c1 [Example 23]
Result: 96.9

====

molecules and their reported CC50 at 144 h
- Assay Notes: Cytotoxicity in PHH natural infection assay (Cell Counting Kit-8)
- Assay type: cell-based
- Conditions Used: HBV-infected primary human hepatocytes, CCK8

Some solved cases for reference:
- CS(=O)(=O)c1ccc(C(=O)NC23CC(c4nc5ccc(F)cc5o4)(C2)C3)o1: > 100 µM
- CS(=O)(=O)c1ccc(C(=O)NC23CCC(c4nc5cc(Cl)ccc5o4)(CC2)C3)o1: 76.6 µM

Q: Name the reported CC50 at 144 h value associated with the molecule "CS(=O)(=O)c1ccc(C(=O)NC23CC(c4nc5cc(Cl)ccc5o4)(C2)C3)s1"
Result: > 100 µM

Q: Name the reported CC50 at 144 h value associated with the molecule O=C(CC1CCCS(=O)(=O)C1)NC12CCC(c3nc4cc(Cl)ccc4o3)(CC1)CC2 (stereo not shown)
Result: 43.9 µM

Q: Name the reported CC50 at 144 h value associated with the molecule "O=C(NC12CC(c3nc4cc(Cl)ccc4o3)(C1)C2)c1cnc(C(F)(F)F)nc1"
Result: 88.2 µM

Q: Name the reported CC50 at 144 h value associated with the molecule O=C(NC12CC(c3nc4cc(Cl)ccc4o3)(C1)C2)c1ccc([S+]([O-])CC2CC2)o1 (stereo not shown)
Result: > 100 µM

Q: Name the reported CC50 at 144 h value associated with the molecule "CS(=O)(=O)c1ccc(C(=O)NC23CC(c4nc5cc(Cl)ccc5o4)(C2)C3)o1"
Result: > 100 µM

Q: Name the reported CC50 at 144 h value associated with the molecule "O=C(NC12CC(c3nc4cc(Cl)ccc4o3)(C1)C2)c1cncc(C(F)(F)F)c1"
Result: > 100 µM

Q: Name the reported CC50 at 144 h value associated with the molecule O=C(NC12CCC(c3nc4cc(Cl)ccc4o3)(CC1)CC2)C1CCS(=O)(=O)C1 (stereo not shown)
Result: > 100 µM

Q: Name the reported CC50 at 144 h value associated with the molecule "C[S@@](=N)(=O)c1ccc(C(=O)NC23CC(c4nc5cc(Cl)ccc5o4)(C2)C3)o1"
Result: > 100 µM

Reference for the values: patent US20230286929A1
